I'd be grateful if you could share measured IC50 for these entries.
target: Bromodomain-containing protein 3 (Homo sapiens); assay: TR-FRET In-Vitro Binding Assay: All assays were performed in 384-well microtiter plates. Each assay plate contained 8-point serial dilutions for 40 test compounds, plus 16 high- and 16 low controls. Liquid handling and incubation steps were done on an Innovadyne Nanodrop Express equipped with a robotic arm (Thermo CatX, Perkin Elmer/Caliper Twister II) and an incubator (Liconic STX40, Thermo Cytomat 2C450). The assay plates were prepared by addition of 50 nl per well of compound solution in 90% DMSO HummingBird nanodispenser (Zinsser Analytic). The assay was started by stepwise addition of 4.5 uL per well of bromo domain protein (50 mM HEPES, pH 7.5, 0.005% Tween20, 0.1% BSA, 50 mM NaCl, 45 nM His-Brd2(60-472) or 45 nM His-Brd3(20-477) or 45 nM His-Brd4(44-477) all proteins produced in-house) and 4.5 uL per well of peptide solution (50 mM HEPES, pH 7.5, 0.005% Tween20, 0.1% BSA, 50 mM NaCl, 60 nM acetyl-histone H4 (AcK 5, 8, 12, 16) (Biosyntan GmbH)). Reactions were incubated at 30 C. for 35 minutes.
Sequence (Q15059 whole entry, the tested form may be a part): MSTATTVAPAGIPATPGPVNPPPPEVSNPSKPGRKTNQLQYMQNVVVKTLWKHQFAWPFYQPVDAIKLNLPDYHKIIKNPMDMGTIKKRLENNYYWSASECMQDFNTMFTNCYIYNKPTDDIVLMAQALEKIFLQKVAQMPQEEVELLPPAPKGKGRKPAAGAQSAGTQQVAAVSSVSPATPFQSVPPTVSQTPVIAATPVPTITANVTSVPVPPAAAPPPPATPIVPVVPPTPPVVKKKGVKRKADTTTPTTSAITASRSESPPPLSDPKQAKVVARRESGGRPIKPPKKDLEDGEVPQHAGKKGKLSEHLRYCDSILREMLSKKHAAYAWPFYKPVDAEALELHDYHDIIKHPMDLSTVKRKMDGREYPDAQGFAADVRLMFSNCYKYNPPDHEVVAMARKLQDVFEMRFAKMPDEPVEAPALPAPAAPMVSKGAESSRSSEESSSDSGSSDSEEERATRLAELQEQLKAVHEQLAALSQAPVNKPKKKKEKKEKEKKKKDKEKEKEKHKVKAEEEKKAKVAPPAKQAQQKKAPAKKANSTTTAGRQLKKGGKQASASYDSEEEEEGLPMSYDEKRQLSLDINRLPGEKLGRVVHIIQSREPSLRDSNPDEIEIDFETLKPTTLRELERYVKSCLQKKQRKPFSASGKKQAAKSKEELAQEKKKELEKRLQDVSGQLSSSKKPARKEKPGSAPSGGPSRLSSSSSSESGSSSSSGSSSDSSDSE
Respond with the bare value in nM.

Look up and state reported IC50 for COc1ncccc1-n1nc2c(c1C)C(c1ccc(F)cc1F)N(c1cc(C)c3nnc(C)n3c1)C2=O (centres undefined)
80

Respond only with IC50 recorded for CCc1nn(CCOC)c2c1C(c1ccc(Cl)cc1)N(c1cc(C)c(=O)n(C)c1)C2=O (centres undefined)
44

Entry Cc1cc(N2C(=O)c3nn(C(C)C)c(C)c3C2c2ccc(Cl)cc2F)cn2c(C)nnc12 (centres undefined) needs its IC50 filled in; supply it.
60

For the molecule Cc1[nH]nc2c1C(c1ccc(Cl)cc1F)N(c1cc(C)c(=O)n(C)c1)C2=O (centres undefined) , give its reported IC50.
170

* * *

molecular target: Bromodomain-containing protein 4 (Homo sapiens, UniProt O60885); assay: TR-FRET In-Vitro Binding Assay: All assays were performed in 384-well microtiter plates. Each assay plate contained 8-point serial dilutions for 40 test compounds, plus 16 high- and 16 low controls. Liquid handling and incubation steps were done on an Innovadyne Nanodrop Express equipped with a robotic arm (Thermo CatX, Perkin Elmer/Caliper Twister II) and an incubator (Liconic STX40, Thermo Cytomat 2C450). The assay plates were prepared by addition of 50 nl per well of compound solution in 90% DMSO HummingBird nanodispenser (Zinsser Analytic). The assay was started by stepwise addition of 4.5 uL per well of bromo domain protein (50 mM HEPES, pH 7.5, 0.005% Tween20, 0.1% BSA, 50 mM NaCl, 45 nM His-Brd2(60-472) or 45 nM His-Brd3(20-477) or 45 nM His-Brd4(44-477) all proteins produced in-house) and 4.5 uL per well of peptide solution (50 mM HEPES, pH 7.5, 0.005% Tween20, 0.1% BSA, 50 mM NaCl, 60 nM acetyl-histone H4 (AcK 5, 8, 12, 16) (Biosyntan GmbH)). Reactions were incubated at 30 C. for 35 minutes.
reported.metric: pIC50
// pIC50: -log10(molar conc.)

Look up and state reported pIC50 for COc1ncccc1-n1nc2c(c1C)C(c1ccc(F)cc1F)N(c1cc(C)c3nnc(C)n3c1)C2=O (stereo not drawn)
7.26

Check the records and state pIC50 for Cc1cc(N2C(=O)c3nn(C(C)C)c(C)c3C2c2ccc(Cl)cc2F)cn2c(C)nnc12 (stereo not drawn)
7.15

Return value of pIC50 for input Cc1[nH]nc2c1C(c1ccc(Cl)cc1F)N(c1cc(C)c(=O)n(C)c1)C2=O (stereo not drawn) , no commentary.
6.72

* * *

target: CREB-binding protein (Homo sapiens, UniProt Q92793); assay: AlphaScreen In-Vitro Binding Assay: In order to assess bromodomain selectivity, we set up a binding assay using the bromodomain encoded by the CREBBP gene. Compounds were tested in the CREBBP assay with a similar protocol, however using AlphaScreen (Amplified Luminescent Proximity Homogeneous Assay, Perkin Elmer) as detection readout instead of TR-FRET. The assay was started by stepwise addition of 4.5 uL per well of bromo domain protein (50 mM HEPES, pH 7.5, 0.005% Tween20, 0.02% BSA, 150 mM NaCl, 324 nM His-CREBBP (1081-1197) (custom production at Viva Biotech Ltd.)) and 4.5 uL per well of peptide solution (50 mM HEPES, pH 7.5, 0.005% Tween20, 0.02% BSA, 150 mM NaCl, 120 nM acetyl-histone H4 (AcK 5, 8, 12) (Biosyntan GmbH)). Reactions were incubated at 30 C. for 35 minutes. Subsequently 4.5 uL per well detection mix (50 mM HEPES, pH 7.5, 0.005% Tween20, 0.02% BSA, 150 mM NaCl, 45 ug/ml Ni-chelate acceptor beads, 45 ug/mL streptavidin-donor beads) (Perkin Elmer)) were added.
Sequence (Q92793 whole entry, the tested form may be a part): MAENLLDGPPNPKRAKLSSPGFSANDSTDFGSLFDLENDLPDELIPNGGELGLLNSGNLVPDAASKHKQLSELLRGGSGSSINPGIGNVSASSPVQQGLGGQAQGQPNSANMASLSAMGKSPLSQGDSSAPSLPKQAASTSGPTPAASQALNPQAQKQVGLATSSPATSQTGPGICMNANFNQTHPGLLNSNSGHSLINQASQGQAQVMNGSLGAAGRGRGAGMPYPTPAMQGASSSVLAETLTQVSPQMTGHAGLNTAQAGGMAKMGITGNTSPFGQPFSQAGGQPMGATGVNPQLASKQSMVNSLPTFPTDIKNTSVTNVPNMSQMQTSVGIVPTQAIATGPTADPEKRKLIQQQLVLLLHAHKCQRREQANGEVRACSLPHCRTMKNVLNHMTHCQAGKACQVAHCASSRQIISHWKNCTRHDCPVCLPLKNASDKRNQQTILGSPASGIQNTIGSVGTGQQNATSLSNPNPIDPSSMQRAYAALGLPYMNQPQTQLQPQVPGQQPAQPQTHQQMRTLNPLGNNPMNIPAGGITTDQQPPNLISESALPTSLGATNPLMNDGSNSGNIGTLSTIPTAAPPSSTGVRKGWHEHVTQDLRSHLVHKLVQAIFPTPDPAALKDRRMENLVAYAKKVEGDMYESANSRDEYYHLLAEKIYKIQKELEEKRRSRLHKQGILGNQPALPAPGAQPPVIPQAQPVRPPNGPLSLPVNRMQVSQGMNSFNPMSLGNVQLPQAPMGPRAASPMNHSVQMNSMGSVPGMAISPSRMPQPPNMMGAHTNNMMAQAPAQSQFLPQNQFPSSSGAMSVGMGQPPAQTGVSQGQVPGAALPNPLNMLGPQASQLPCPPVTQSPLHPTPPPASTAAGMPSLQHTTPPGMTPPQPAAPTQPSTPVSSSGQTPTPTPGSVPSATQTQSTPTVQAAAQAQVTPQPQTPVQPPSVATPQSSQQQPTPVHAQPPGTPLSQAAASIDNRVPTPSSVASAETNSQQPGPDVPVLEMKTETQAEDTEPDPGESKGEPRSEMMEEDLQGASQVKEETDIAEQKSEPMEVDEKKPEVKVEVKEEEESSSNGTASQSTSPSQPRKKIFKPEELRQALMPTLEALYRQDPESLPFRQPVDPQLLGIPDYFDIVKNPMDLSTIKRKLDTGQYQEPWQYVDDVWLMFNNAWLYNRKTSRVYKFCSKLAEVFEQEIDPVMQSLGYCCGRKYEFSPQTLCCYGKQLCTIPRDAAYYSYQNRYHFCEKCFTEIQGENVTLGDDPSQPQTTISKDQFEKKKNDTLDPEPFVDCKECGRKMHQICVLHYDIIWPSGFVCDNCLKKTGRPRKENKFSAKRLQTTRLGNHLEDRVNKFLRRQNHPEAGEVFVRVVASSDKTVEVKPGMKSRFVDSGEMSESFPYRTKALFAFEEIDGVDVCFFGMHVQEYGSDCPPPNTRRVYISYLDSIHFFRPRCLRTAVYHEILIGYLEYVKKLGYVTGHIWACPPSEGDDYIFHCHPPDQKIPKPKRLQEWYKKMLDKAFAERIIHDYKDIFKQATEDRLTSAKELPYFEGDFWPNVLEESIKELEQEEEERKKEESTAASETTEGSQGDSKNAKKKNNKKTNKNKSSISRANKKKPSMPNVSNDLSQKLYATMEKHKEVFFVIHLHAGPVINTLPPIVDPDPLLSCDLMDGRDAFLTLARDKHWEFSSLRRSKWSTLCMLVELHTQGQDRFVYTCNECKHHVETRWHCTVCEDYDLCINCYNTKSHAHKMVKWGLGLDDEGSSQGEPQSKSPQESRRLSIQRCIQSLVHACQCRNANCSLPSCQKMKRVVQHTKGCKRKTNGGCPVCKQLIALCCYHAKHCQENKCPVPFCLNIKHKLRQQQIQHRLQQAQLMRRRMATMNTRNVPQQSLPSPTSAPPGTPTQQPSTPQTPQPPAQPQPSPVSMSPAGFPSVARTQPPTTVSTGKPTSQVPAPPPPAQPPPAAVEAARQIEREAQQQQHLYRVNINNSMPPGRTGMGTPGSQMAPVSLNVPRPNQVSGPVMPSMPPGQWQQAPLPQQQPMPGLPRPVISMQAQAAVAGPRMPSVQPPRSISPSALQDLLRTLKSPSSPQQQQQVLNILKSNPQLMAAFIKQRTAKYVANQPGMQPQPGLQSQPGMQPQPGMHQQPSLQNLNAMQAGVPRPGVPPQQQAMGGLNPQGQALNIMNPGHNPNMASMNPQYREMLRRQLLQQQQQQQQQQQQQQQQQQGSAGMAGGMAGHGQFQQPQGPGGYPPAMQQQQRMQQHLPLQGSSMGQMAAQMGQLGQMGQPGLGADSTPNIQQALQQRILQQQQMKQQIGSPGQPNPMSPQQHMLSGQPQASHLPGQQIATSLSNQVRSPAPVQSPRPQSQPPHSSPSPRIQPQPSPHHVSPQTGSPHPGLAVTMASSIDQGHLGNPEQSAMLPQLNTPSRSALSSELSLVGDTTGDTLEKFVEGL
reported.metric: pIC50
pIC50 is a log-scale quantity: -log10 of the concentration expressed in molar.

Entry CCc1nn(CCOC)c2c1C(c1ccc(Cl)cc1)N(c1cc(C)c(=O)n(C)c1)C2=O (centres undefined) needs its pIC50 filled in; supply it.
5.32

For the molecule Cc1[nH]nc2c1C(c1ccc(Cl)cc1F)N(c1cc(C)c(=O)n(C)c1)C2=O (centres undefined) , give its measured pIC50 value.
5.55

Note pIC50 for the molecule shown: COc1ncccc1-n1nc2c(c1C)C(c1ccc(F)cc1F)N(c1cc(C)c3nnc(C)n3c1)C2=O (centres undefined)
4.80

Output measured pIC50 for this item: Cc1cc(N2C(=O)c3nn(C(C)C)c(C)c3C2c2ccc(Cl)cc2F)cn2c(C)nnc12 (centres undefined)
5.59

* * *

molecular target: Bromodomain-containing protein 2 (Homo sapiens, UniProt P25440); assay: TR-FRET In-Vitro Binding Assay: All assays were performed in 384-well microtiter plates. Each assay plate contained 8-point serial dilutions for 40 test compounds, plus 16 high- and 16 low controls. Liquid handling and incubation steps were done on an Innovadyne Nanodrop Express equipped with a robotic arm (Thermo CatX, Perkin Elmer/Caliper Twister II) and an incubator (Liconic STX40, Thermo Cytomat 2C450). The assay plates were prepared by addition of 50 nl per well of compound solution in 90% DMSO HummingBird nanodispenser (Zinsser Analytic). The assay was started by stepwise addition of 4.5 uL per well of bromo domain protein (50 mM HEPES, pH 7.5, 0.005% Tween20, 0.1% BSA, 50 mM NaCl, 45 nM His-Brd2(60-472) or 45 nM His-Brd3(20-477) or 45 nM His-Brd4(44-477) all proteins produced in-house) and 4.5 uL per well of peptide solution (50 mM HEPES, pH 7.5, 0.005% Tween20, 0.1% BSA, 50 mM NaCl, 60 nM acetyl-histone H4 (AcK 5, 8, 12, 16) (Biosyntan GmbH)). Reactions were incubated at 30 C. for 35 minutes.
Sequence (P25440 whole entry, the tested form may be a part): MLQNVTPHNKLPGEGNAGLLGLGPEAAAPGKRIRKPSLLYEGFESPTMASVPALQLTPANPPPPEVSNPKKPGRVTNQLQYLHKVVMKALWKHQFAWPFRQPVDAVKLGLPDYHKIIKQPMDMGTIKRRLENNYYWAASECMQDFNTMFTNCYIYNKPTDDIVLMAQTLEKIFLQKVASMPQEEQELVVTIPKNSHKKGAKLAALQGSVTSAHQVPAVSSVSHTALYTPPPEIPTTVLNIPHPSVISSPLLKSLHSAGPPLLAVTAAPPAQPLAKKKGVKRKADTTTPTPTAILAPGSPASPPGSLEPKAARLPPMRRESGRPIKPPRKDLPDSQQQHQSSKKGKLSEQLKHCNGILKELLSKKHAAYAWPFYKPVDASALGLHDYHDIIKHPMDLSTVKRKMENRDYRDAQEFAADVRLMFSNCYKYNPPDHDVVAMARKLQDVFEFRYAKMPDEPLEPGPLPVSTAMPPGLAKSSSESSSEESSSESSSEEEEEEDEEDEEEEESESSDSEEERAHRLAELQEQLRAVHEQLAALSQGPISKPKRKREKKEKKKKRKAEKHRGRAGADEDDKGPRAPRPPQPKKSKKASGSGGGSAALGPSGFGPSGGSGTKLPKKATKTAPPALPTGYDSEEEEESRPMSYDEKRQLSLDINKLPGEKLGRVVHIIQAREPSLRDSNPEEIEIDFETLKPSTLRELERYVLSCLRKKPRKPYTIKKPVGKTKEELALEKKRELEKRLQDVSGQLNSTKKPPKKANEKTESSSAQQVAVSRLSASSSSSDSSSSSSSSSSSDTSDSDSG
Would you kindly list IC50 for each of these molecules?

Fill in reported IC50 for this entry: Cc1[nH]nc2c1C(c1ccc(Cl)cc1F)N(c1cc(C)c(=O)n(C)c1)C2=O (centres undefined)
270 nM

Note IC50 for the molecule shown: Cc1cc(N2C(=O)c3nn(C(C)C)c(C)c3C2c2ccc(Cl)cc2F)cn2c(C)nnc12 (centres undefined)
120 nM

Quick one: give measured IC50 for CCc1nn(CCOC)c2c1C(c1ccc(Cl)cc1)N(c1cc(C)c(=O)n(C)c1)C2=O (centres undefined)
52 nM

Read the entry COc1ncccc1-n1nc2c(c1C)C(c1ccc(F)cc1F)N(c1cc(C)c3nnc(C)n3c1)C2=O (centres undefined) and write its reported IC50.
130 nM
